Sourced from ChEMBL document CHEMBL1140447

Each entry below carries its reported log10(ED30).
Test system: Rattus norvegicus
EXPERIMENT_DESCRIPTION: Intravenous dose required to inhibit rhythmic contraction of urinary bladder in urethane (1.0 g/kg s.c.) anesthetized female wistar rats
Type: functional
TEST_PARAMETERS: Rattus norvegicus; read-out: ED30
Values below are the log10 of the recorded ED30, with mg/kg as the unit.

O=C(O[C@H]1CN2CCC1CC2)N1CCc2ccccc2C1c1ccsc1 (single isomer, unassigned; 12b)
-0.62
NC(=O)C(c1ccccc1)(c1ccccc1)[C@@H]1CCN(CCc2ccc3c(c2)CCO3)C1
-1.24

Rattus norvegicus assay, molecule O=C(O[C@H]1CN2CCC1CC2)N1CCc2ccccc2[C@@H]1c1ccccc1 , recorded log10(ED30) = -0.74

Rattus norvegicus log10(ED30) of Cc1ccc(O)c([C@H](CCN(C(C)C)C(C)C)c2ccccc2)c1 is -1.22

Item CCN(CC)CC#CCOC(=O)C(O)(c1ccccc1)C1CCCCC1 (configuration not stated) ; assay system Rattus norvegicus; log10(ED30) reported as -0.70

Value sought: log10(ED30), system Rattus norvegicus, item O=C(O[C@H]1CN2CCC1CC2)N1CCc2ccccc2[C@H]1c1ccccc1 . Result: -1.44

log10(ED30) of O=C(O[C@H]1CN2CCC1CC2)N1CCc2ccccc2C1c1ccsc1 (single isomer, unassigned; 12a) , assay on Rattus norvegicus, is -1.80

---

Reported values: pKi for Muscarinic acetylcholine receptor M2 (Rattus norvegicus), one per item.
Notebook: values listed as pKi are -log10 of the concentration (mol/L).

Previously resolved entries follow.
O=C(O[C@H]1CN2CCC1CC2)N1CCc2ccccc2C1c1ccsc1 (single isomer, unassigned; 12b)
6.96
O=C(O[C@@H]1CN2CCC1CC2)N1CCc2ccccc2[C@H]1c1ccccc1
5.80
O=C(O[C@H]1CN2CCC1CC2)N1C[C@H](O)c2ccccc2[C@H]1c1ccccc1
5.77

We next turn to a different compound, shown below.
Looking up O=C(O[C@H]1CN2CCC1CC2)N1C[C@@H](O)c2ccccc2[C@@H]1c1ccccc1 , I found its pKi recorded as 6.07
